Where do the numbers come from? From patent US9394297B2.

As shown below, each of these compounds has a reported pIC50 value.
molecular target: Pim-2 (Homo sapiens (Human)); experiment: Pim-Mn enzyme assay (HTRF, 384-well), Pim-2; format: biochemical; conditions: Pim-2 enzyme 0.5 pM, ATP 1.5 μM, BAD (S112) 0.5 μM, HTRF, 22-point curve; read-out: Pim-2-Mn IC50 IP
Sequence (Q9P1W9 whole entry): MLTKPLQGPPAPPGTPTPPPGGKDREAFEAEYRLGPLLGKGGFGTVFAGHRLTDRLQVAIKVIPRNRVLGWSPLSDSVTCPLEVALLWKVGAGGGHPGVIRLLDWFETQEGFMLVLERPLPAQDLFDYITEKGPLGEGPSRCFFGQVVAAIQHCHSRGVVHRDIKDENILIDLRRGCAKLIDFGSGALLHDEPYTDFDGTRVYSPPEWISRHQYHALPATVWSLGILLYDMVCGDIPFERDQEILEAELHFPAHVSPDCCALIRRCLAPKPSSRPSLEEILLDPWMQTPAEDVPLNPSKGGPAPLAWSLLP
Value format note: pIC50 is -log10 of concentration (mol/L); just state the number.

A selection of reference data follows.
[[record]]
compound = "Cc1nc2cccc(-c3cc4c([nH]3)CCNC4=O)c2nc1NC(C)(C)CN1CCOCC1"
test_target = "Pim-2 (Homo sapiens (Human))"
measurement_kind = "pIC50"
assay_result = 6.87

[[record]]
compound = "CC(C)(C)Nc1nc2c(-c3cc4c([nH]3)CCNC4=O)cccc2nc1N"
test_target = "Pim-2 (Homo sapiens (Human))"
measurement_kind = "pIC50"
assay_result = 9.37


Let's switch to this compound now.
pIC50 reported for this compound Cc1nc2cccc(-c3cc4c([nH]3)C(CCO)NC4=O)c2nc1NC(C)(C)C (stereo not drawn) : 9.33

###

target: UniProt:P11309; assay: Pim enzyme assay (HTRF, 96-well), Pim-1; format: biochemical; details: full length recombinant Pim-1, biotinylated-BAD (S112) peptide, 10-point curve, 2 h RT, read-out: Pim-1 IC50 IP
Where a name gives a salt, the structure may show the parent alone.
Measurement Kind: pIC50
Value format note: pIC50 is -log10 of concentration (mol/L); just state the number.

A selection of reference data follows.
[[record]]
molecule = "Cc1nc2cccc(-c3cc4c([nH]3)CCNC4=O)c2nc1NC1CC1 [Example 194]"
measurement_kind = "pIC50"
assay_result = 8.43

[[record]]
molecule = "Cc1nc2cccc(-c3cc4c([nH]3)CCNC4=O)c2nc1NC1CCCCCC1 [Example 134]"
measurement_kind = "pIC50"
assay_result = 8.05

[[record]]
molecule = "Cc1nc2cccc(-c3cc4c([nH]3)CCNC4=O)c2nc1N[C@H]1CC[C@@H](N)C1 (single isomer, unassigned) [Example 142]"
measurement_kind = "pIC50"
assay_result = 8.72

[[record]]
molecule = "C[C@H](Nc1ccc2cccc(-c3cc4c([nH]3)CCNC4=O)c2n1)c1ccccc1 [Example 112]"
measurement_kind = "pIC50"
assay_result = 7.54

[[record]]
molecule = "O=C1NCCc2[nH]c(-c3cccc4ccc(OCc5ccccc5)nc34)cc21 [Example 20]"
measurement_kind = "pIC50"
assay_result = 7.41

[[record]]
molecule = "O=C1NCCc2[nH]c(-c3cccc4ccc(Nc5cncnc5)nc34)cc21 [Example 13]"
measurement_kind = "pIC50"
assay_result = 9.10

[[record]]
molecule = "O=C1NCCc2[nH]c(-c3cccc4ccc(-c5c(F)cccc5F)nc34)cc21 [Example 231]"
measurement_kind = "pIC50"
assay_result = 8.09

[[record]]
molecule = "O=C1NCCc2[nH]c(-c3cccc4ccc(O[C@@H]5CCCNC5)nc34)cc21 [Example 89]"
measurement_kind = "pIC50"
assay_result = 7.33

[[record]]
molecule = "Cc1nc2cccc(-c3cc4c([nH]3)CCNC4=O)c2nc1NC1CCCC1 [Example 130]"
measurement_kind = "pIC50"
assay_result = 8.24

[[record]]
molecule = "O=c1[nH]cnc2[nH]c(-c3cccc4ccc(Cl)nc34)cc12 [Example 19, trifluoroacetate]"
measurement_kind = "pIC50"
assay_result = 6.88


pIC50 reported for this molecule Cc1nc2cccc(-c3cc4c([nH]3)CCNC4=O)c2nc1NC1CCCNC1=O (racemic) [Example 200] : 6.96

pIC50 reported for this molecule Cc1nc2cccc(-c3cc4c([nH]3)CCNC4=O)c2nc1N[C@H](C)C(N)=O [Example 128] : 6.69

pIC50 reported for this molecule N[C@H]1CCC[C@H](Nc2ccc3cccc(-c4cc5c([nH]4)CCNC5=O)c3n2)C1 (racemic) [Example 120] : 9.22

pIC50 reported for this molecule CCC1CNC(=O)c2cc(-c3cccc4cc(C)c(Nc5ccccc5)nc34)[nH]c21 (single isomer, unassigned) [Example 118] : 8.49

###

biological target: Pim-1 (Homo sapiens (Human)); test: Pim-Mn enzyme assay (HTRF, 384-well), Pim-1; type: biochemical; conditions: Pim-1 enzyme 5 pM, ATP 1.5 μM, BAD (S112) 0.5 μM, HTRF, 22-point curve; read-out: Pim-1-Mn IC50 IP
Sequence (P11309 whole entry): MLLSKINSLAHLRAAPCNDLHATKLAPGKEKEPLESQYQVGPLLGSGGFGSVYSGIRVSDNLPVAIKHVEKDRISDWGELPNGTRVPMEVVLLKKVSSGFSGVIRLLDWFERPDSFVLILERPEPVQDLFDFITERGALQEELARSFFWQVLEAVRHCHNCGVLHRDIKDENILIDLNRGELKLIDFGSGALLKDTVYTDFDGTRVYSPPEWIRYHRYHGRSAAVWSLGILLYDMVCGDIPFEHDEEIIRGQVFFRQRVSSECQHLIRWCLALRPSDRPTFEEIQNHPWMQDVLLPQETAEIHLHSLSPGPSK
As shown below, each of these compounds has a reported pIC50 value.
Value format note: pIC50 is -log10 of concentration (mol/L); just state the number.

[[record]]
compound = "Cc1nc2cccc(-c3cc4c(n3C)CCNC4=O)c2nc1NC(C)(C)C"
test_target = "Pim-1 (Homo sapiens (Human))"
measurement_kind = "pIC50"
assay_result = 8.02

[[record]]
compound = "Cc1nc2cccc(-c3cc4c([nH]3)[C@@H](C)NC4=O)c2nc1NC(C)C"
test_target = "Pim-1 (Homo sapiens (Human))"
measurement_kind = "pIC50"
assay_result = 8.75

[[record]]
compound = "Cc1nc2cccc(-c3cc4c([nH]3)CCNC4=O)c2nc1NC(C)c1ccccn1 (stereo not drawn)"
test_target = "Pim-1 (Homo sapiens (Human))"
measurement_kind = "pIC50"
assay_result = 7.01

[[record]]
compound = "Cc1nc2cccc(-c3cc4c([nH]3)CCNC4=O)c2nc1N[C@H]1C[C@@H](NCCF)C1"
test_target = "Pim-1 (Homo sapiens (Human))"
measurement_kind = "pIC50"
assay_result = 9.00


Query `CN(c1cnc2cccc(-c3cc4c([nH]3)CCNC4=O)c2n1)C(C)(C)C` on Pim-1 (Homo sapiens (Human)); pIC50 returned: 9.22

Query `Cc1nc2cccc(-c3cc4c([nH]3)CCNC4=O)c2nc1N[C@H]1C[C@@H](N(CCF)CCF)C1` on Pim-1 (Homo sapiens (Human)); pIC50 returned: 8.70

###

target: Pim-1 (Homo sapiens (Human)); assay: Pim-Mn enzyme assay (HTRF, 384-well), Pim-1; type: biochemical; conditions: Pim-1 enzyme 5 pM, ATP 1.5 μM, BAD (S112) 0.5 μM, HTRF, 22-point curve; read-out: Pim-1-Mn IC50 IP
As shown below, each of these compounds has a reported pIC50 value.
Value format note: pIC50 is -log10 of concentration (mol/L); just state the number.

A selection of reference data follows.
[[record]]
compound = "CNc1nc2cccc(-c3cc4c([nH]3)CCNC4=O)c2nc1NC(C)(C)C"
test_target = "Pim-1 (Homo sapiens (Human))"
assay_result = 8.92

[[record]]
compound = "Cc1nc2cccc(-c3cc4c([nH]3)CCNC4=O)c2nc1NC1CCOC1 (racemic)"
test_target = "Pim-1 (Homo sapiens (Human))"
assay_result = 8.19

[[record]]
compound = "CC(C)Nc1nc2c(-c3cc4c([nH]3)CCNC4=O)cccc2c(=O)n1-c1ccccc1"
test_target = "Pim-1 (Homo sapiens (Human))"
assay_result = 8.23

[[record]]
compound = "Cc1nc2cccc(-c3cc4c([nH]3)C[C@H](C)NC4=O)c2nc1NC(C)(C)C"
test_target = "Pim-1 (Homo sapiens (Human))"
assay_result = 8.23

[[record]]
compound = "Cc1nc2cccc(-c3cc4c(=O)[nH]cnc4[nH]3)c2nc1NC(C)(C)C"
test_target = "Pim-1 (Homo sapiens (Human))"
assay_result = 8.91


pIC50 reported for this compound `Cc1nc2ccc(F)c(-c3cc4c([nH]3)CCNC4=O)c2nc1NC(C)(C)CO` : 9.00

pIC50 reported for this compound Cc1nc2cccc(-c3cc4c([nH]3)C(C)CNC4=O)c2nc1NC1CC1 (single isomer, unassigned) [Example 161] : 9.10

pIC50 reported for this compound `Cc1nc2cccc(-c3cc4c([nH]3)CCNC4=O)c2nc1NC1(C)CCC1` : 9.10

###

target: Pim-1 (Homo sapiens (Human)); experiment: Pim enzyme assay (HTRF, 96-well), Pim-1; assay type: biochemical; settings: full length recombinant Pim-1, biotinylated-BAD (S112) peptide, 10-point curve, 2 h RT, read-out: Pim-1 IC50 IP
Criterion: IC50 strictly less than 5 nM. Met: fulfilled. Not met: not fulfilled.

[[record]]
compound = "Cc1ccc(C(N)=O)cc1-c1ccc2cccc(-c3cc4c([nH]3)CCNC4=O)c2n1 [Example 232]"
label = "not fulfilled"

[[record]]
compound = "Nc1cccc(Nc2ccc3cccc(-c4cc5c([nH]4)CCNC5=O)c3n2)c1 [Example 110]"
label = "fulfilled"

[[record]]
compound = "Cc1nc2cccc(-c3cc4c([nH]3)CCNC4=O)c2nc1NC1(CO)CCC1 [Example 146]"
label = "not fulfilled"

[[record]]
compound = "O=C1NCCc2[nH]c(-c3cccc4ccc(NC5CCOCC5)nc34)cc21 [Example 85]"
label = "fulfilled"

[[record]]
compound = "Cc1nc2cccc(-c3cc4c([nH]3)CCNC4=O)c2nc1NCC(C)(C)C [Example 147]"
label = "fulfilled"


*Q* Just wondering, is IC50 of C=C(c1ccccc1)c1ccc2cccc(-c3cc4c([nH]3)CCNC4=O)c2n1 [Example 113] below 5 nM?
*A* fulfilled

*Q* Just wondering, is IC50 of Cc1cccc(Oc2ccc3cccc(-c4cc5c([nH]4)CCNC5=O)c3n2)c1 [Example 43] below 5 nM?
*A* not fulfilled

*Q* Just wondering, is IC50 of O=C1NCCn2cc(-c3cccc4ccc(C(=O)N5CCCC5)nc34)cc21 [Example 168] below 5 nM?
*A* not fulfilled
